# TESTED TARGET: histone deacetylase, subtype 1 (HDAC1) (Homo sapiens, UniProt Q13547)
# Construct: Flag; made in house
# Sequence (Q13547 whole entry): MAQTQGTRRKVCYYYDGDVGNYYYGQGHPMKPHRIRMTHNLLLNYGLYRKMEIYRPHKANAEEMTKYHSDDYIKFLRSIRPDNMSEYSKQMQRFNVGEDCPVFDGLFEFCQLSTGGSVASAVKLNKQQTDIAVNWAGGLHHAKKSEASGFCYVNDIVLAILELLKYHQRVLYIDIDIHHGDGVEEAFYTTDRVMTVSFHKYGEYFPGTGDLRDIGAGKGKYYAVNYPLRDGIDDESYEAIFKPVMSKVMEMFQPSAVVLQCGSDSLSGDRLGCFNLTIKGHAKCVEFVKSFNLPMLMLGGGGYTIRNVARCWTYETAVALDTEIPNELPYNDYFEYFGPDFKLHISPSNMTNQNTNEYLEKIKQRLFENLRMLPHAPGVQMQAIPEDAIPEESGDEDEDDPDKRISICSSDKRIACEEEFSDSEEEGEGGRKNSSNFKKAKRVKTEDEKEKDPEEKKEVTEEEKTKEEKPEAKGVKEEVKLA
# ASSAY INFO: HDAC1-Flag assay (in vitro fluorescent deacetylation assay)
# Type: biochemical
# COND: Table 4, compounds of formula V; epitope-tagged human HDAC1 complex, substrate at Km; mean ± spread (N); read-out: HDAC Inhibition (IC50) nm
MEASURED ENDPOINT: pIC50
Expect pIC50 as a plain number equal to -log10 of the molar concentration.

In plain terms, O=C(CCCCCCN(Cc1ccccc1)Cc1ccccc1)NO has a documented pIC50 of 6.43

Quick note, pIC50 for O=C(CCCCCCN(CCc1ccccc1)Cc1ccccc1)NO landed at 6.80

Sure, the documented pIC50 for O=C(CCCCCCN(CCc1c[nH]c2ccccc12)Cc1ccc(Br)cc1)NO is 6.73

pIC50 in this record for O=C(CCCCCCCN(CCc1c[nH]c2ccccc12)Cc1ccc(Br)cc1)NO : 6.69
